Test Details: qHTS assay to identify small molecule agonists of the farnesoid-X-receptor (FXR) signaling pathway - cell viability counter screen (AID 743218); also: nearly all actives have a fitted effect of over 45% in size; also: potency is read from the fitted curve at half-maximal effect
Cond: FXR-bla HEK293T viability, CellTiter-Glo luminescence, 16 h; series mostly up to 62.6 µM
Inconclusive results are not listed. Calls of active or inactive are those of the source. Calls follow the shape of the dose curve; as a rule, active = well fitted cell-killing curve with a large enough effect in the repeat runs; inconclusive = weak or mixed curves, or effect the other way; inactive = no such curve, though single readings can be large or run the other way.
Assay Readout: Potency

>  <Compound>
Oc1cccc2cc3cccc(O)c3c(O)c12

>  <Assay Readout>
Potency

>  <Observed>
inactive

$$$$
>  <Compound>
Cn1cc(C(=O)[C@@H]2CCc3nc[nH]c3C2)c2ccccc21

>  <Assay Readout>
Potency

>  <Observed>
inactive

$$$$
>  <Compound>
CN(C)c1ccc(C2(c3ccc(N(C)C)cc3)OC(=O)c3cc(N(C)C)ccc32)cc1

>  <Assay Readout>
Potency

>  <Observed>
inactive

$$$$
>  <Compound>
NC(=O)NS(=O)(=O)c1ccc(N)cc1

>  <Assay Readout>
Potency

>  <Observed>
inactive

$$$$
>  <Compound>
CCCCCCCCCCCCCCCC(=O)OC[C@H](O)[C@H]1OC(=O)C(O)=C1O

>  <Assay Readout>
Potency

>  <Observed>
38.9 µM (active)

$$$$
>  <Compound>
Oc1ccc2c(c1)-c1ccccc1C2

>  <Assay Readout>
Potency

>  <Observed>
inactive

$$$$
>  <Compound>
CCc1cc(Cc2cc(CC)c(N)c(CC)c2)cc(CC)c1N

>  <Assay Readout>
Potency

>  <Observed>
43.6 µM (active)

$$$$
>  <Compound>
Oc1cc2ccccc2c2ccccc12

>  <Assay Readout>
Potency

>  <Observed>
11 µM (active)

$$$$
>  <Compound>
CCCN(CCC)c1c([N+](=O)[O-])cc(C(F)(F)F)c(N)c1[N+](=O)[O-]

>  <Assay Readout>
Potency

>  <Observed>
38.8 µM (active)

$$$$
>  <Compound>
CCc1cc(SCc2sc(-c3ccc(C(F)(F)F)cc3)nc2CN2CCN(c3ccc(OC)cc3)CC2)ccc1OCC(=O)O

>  <Assay Readout>
Potency

>  <Observed>
7.76 µM (active)

$$$$
>  <Compound>
COC(=O)C1=C(C)NC(C)=C(C(=O)OCCc2ccc(N3CCN(C(c4ccccc4)c4ccccc4)CC3)cc2)C1c1cccc([N+](=O)[O-])c1 (stereo not given)

>  <Assay Readout>
Potency

>  <Observed>
inactive

$$$$
>  <Compound>
CC1(C)CCC(C)(C)c2cc(C(=O)Nc3ccc(C(=O)O)cc3)ccc21

>  <Assay Readout>
Potency

>  <Observed>
inactive

$$$$
>  <Compound>
Cc1cc(O)c(C(C)(C)C)cc1C(C)(C)C

>  <Assay Readout>
Potency

>  <Observed>
54.9 µM (active)

$$$$
>  <Compound>
CCCCCCCC(=O)[O-].CCCCCCCC(=O)[O-].[Zn+2]

>  <Assay Readout>
Potency

>  <Observed>
inactive

$$$$
>  <Compound>
Cc1oc(-c2ccccc2)nc1CCC(=O)c1ccc(CC2SC(=O)NC2=O)cc1 (stereo not given)

>  <Assay Readout>
Potency

>  <Observed>
inactive

$$$$
>  <Compound>
CCC(C)(C)C1CCCCC1OC(C)=O (stereo not given)

>  <Assay Readout>
Potency

>  <Observed>
inactive

$$$$
>  <Compound>
O=C(Oc1cccc2cccnc12)c1ccccc1

>  <Assay Readout>
Potency

>  <Observed>
9.44 µM (active)

$$$$
>  <Compound>
Nc1cc(C(F)(F)F)ccc1S

>  <Assay Readout>
Potency

>  <Observed>
inactive

$$$$
>  <Compound>
CCCCCCCCn1sc(Cl)c(Cl)c1=O

>  <Assay Readout>
Potency

>  <Observed>
4.36 µM (active)

$$$$
>  <Compound>
C=CC(=O)OCC(CO)(COCC(COC(=O)C=C)(COC(=O)C=C)COC(=O)C=C)COC(=O)C=C

>  <Assay Readout>
Potency

>  <Observed>
4.31 µM (active)

$$$$
>  <Compound>
Fc1ccc(C(c2ccc(F)cc2)N2CCN(C/C=C/c3ccccc3)CC2)cc1

>  <Assay Readout>
Potency

>  <Observed>
inactive

$$$$
>  <Compound>
CCCCCCOC(=O)c1ccc(O)cc1

>  <Assay Readout>
Potency

>  <Observed>
inactive

$$$$
>  <Compound>
Cc1cc(O)c(C(C)(C)C)cc1Sc1cc(C(C)(C)C)c(O)cc1C

>  <Assay Readout>
Potency

>  <Observed>
8.69 µM (active)

$$$$
>  <Compound>
Oc1ccc(C2(c3ccc(O)cc3)CC3CC2C2CCCC32)cc1 (stereo not given)

>  <Assay Readout>
Potency

>  <Observed>
18.7 µM (active)

$$$$
>  <Compound>
Nc1ccc2cc(S(=O)(=O)O)cc(O)c2c1N=Nc1ccccc1C(F)(F)F

>  <Assay Readout>
Potency

>  <Observed>
inactive

$$$$
>  <Compound>
CC(=O)SC[C@@H](Cc1ccccc1)C(=O)NCC(=O)OCc1ccccc1

>  <Assay Readout>
Potency

>  <Observed>
inactive

$$$$
>  <Compound>
CCOc1nc2cccc(C(=O)OC(C)OC(=O)OC3CCCCC3)c2n1Cc1ccc(-c2ccccc2-c2nn[nH]n2)cc1 (stereo not given)

>  <Assay Readout>
Potency

>  <Observed>
15.5 µM (active)

$$$$
>  <Compound>
CCOC(=O)/C=C(C)/C=C/C=C(C)/C=C/c1c(C)cc(OC)c(C)c1C

>  <Assay Readout>
Potency

>  <Observed>
inactive

$$$$
>  <Compound>
c1ccc(CSCc2ccccc2)cc1

>  <Assay Readout>
Potency

>  <Observed>
inactive

$$$$
>  <Compound>
Cc1cc(N)c(S(=O)(=O)O)cc1Cl

>  <Assay Readout>
Potency

>  <Observed>
inactive

$$$$
>  <Compound>
CC(C)(C)c1ccc(C(=O)O)cc1

>  <Assay Readout>
Potency

>  <Observed>
inactive

$$$$
>  <Compound>
CCN(C(=O)N(CC)c1ccccc1)c1ccccc1

>  <Assay Readout>
Potency

>  <Observed>
inactive

$$$$
>  <Compound>
O=C(O)c1c(Cl)cccc1Cl

>  <Assay Readout>
Potency

>  <Observed>
inactive

$$$$
>  <Compound>
CC(C)(C)CC(C)(C)c1ccc(OCCOCC[N+](C)(C)Cc2ccccc2)cc1

>  <Assay Readout>
Potency

>  <Observed>
48.9 µM (active)

$$$$
>  <Compound>
COc1cc(/C=C/C(=O)O[C@H]2CC[C@]34C[C@]35CC[C@]3(C)[C@@H]([C@H](C)CCC=C(C)C)CC[C@@]3(C)[C@@H]5CC[C@H]4C2(C)C)ccc1O

>  <Assay Readout>
Potency

>  <Observed>
inactive

$$$$
